These measurements were taken from ChEMBL document CHEMBL6114933.

Assay: Cytotoxicity against mouse L929 cells
Type: toxicity, cell-based
pIC50: −log10 of the molar value.
readout-kind: pIC50

Specify reported pIC50 for the molecule shown: CC(C)C(=O)c1c(Nc2ccc(F)cc2F)[nH]c2c(Cl)cc(Cl)c(Cl)c2c1=O
< 4.00

----------
Target: Voltage-gated inwardly rectifying potassium channel KCNH2 (Homo sapiens, UniProt Q12809)
Sequence (Q12809 whole entry): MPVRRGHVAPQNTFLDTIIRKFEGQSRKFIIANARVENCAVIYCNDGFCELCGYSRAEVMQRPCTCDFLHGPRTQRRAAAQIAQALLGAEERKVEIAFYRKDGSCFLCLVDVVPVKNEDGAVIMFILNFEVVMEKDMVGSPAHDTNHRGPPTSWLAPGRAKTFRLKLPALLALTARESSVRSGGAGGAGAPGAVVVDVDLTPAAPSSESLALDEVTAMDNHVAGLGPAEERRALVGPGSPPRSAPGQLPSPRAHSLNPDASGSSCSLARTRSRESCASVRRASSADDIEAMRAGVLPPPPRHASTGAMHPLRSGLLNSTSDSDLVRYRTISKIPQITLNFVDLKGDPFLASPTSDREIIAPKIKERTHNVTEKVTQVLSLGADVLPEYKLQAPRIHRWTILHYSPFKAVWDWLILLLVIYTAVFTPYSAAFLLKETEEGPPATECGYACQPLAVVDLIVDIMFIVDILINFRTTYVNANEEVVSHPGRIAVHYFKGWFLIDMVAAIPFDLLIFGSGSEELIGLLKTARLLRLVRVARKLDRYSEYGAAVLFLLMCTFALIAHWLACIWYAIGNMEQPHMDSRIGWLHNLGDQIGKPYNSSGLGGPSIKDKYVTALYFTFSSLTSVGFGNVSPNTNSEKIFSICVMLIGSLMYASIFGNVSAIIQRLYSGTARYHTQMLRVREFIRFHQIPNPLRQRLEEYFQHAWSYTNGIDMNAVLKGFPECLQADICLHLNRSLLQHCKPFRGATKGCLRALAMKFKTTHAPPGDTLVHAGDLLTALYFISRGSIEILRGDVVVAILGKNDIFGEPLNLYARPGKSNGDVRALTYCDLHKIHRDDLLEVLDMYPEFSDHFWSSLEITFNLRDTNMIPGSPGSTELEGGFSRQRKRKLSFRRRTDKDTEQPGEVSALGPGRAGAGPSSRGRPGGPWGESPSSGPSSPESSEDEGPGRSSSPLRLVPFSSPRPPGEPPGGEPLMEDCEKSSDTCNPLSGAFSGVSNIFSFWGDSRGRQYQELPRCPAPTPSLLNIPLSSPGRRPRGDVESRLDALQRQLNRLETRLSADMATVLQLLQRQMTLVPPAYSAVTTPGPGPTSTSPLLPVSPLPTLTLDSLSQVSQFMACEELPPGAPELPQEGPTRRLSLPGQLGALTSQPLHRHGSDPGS
readout-kind: pIC50
Give bare numbers, as −log10 of the molar value.

Specify reported pIC50 for the molecule shown: CC(C)C(=O)c1c(Nc2ccc(F)cc2F)[nH]c2c(Cl)cc(Cl)c(Cl)c2c1=O
4.22

----------
Give measured IC50 for each item. Keep answers brief.
Assay: Cytotoxicity against human HepG2 cells
Type: toxicity, cell-based
Answers are plain numbers, in µM.

> print(dat)
                              sample.smiles  measured.result
1  CC(C)C(=O)c1c(Nc2ccc(F)c(F)c2F)[nH]c2c(F)cc(F)cc2c1=O             63.7
2  CC(C)C(=O)c1c(Nc2ccc(Cl)cc2Cl)[nH]c2c(F)cc(F)cc2c1=O               39

Specify reported IC50 for the compound shown: CC(C)C(=O)c1c(Nc2ccc(F)c(F)c2F)[nH]c2c(Cl)cc(Cl)c(Cl)c2c1=O
31.2

----------
System: Staphylococcus aureus
Assay: Ex vivo antibacterial activity against methicillin-resistant Staphylococcus aureus assessed as inhibition of bacterial growth by cell infection model
Assay type: functional
Label T when MIC50 is strictly below 7 µM; otherwise label F.

> print(dat)
                              sample.smiles  class.label
1  CC(C)C(=O)c1c(Nc2ccc(F)cc2F)[nH]c2c(Cl)cc(Cl)c(Cl)c2c1=O            T
2  CC(=O)c1c(Nc2ccc(Cl)cc2Cl)[nH]c2c(F)cc(F)cc2c1=O            F
3  CC(C)C(=O)c1c(Nc2ccc(F)c(F)c2F)[nH]c2c(Cl)cc(Cl)c(Cl)c2c1=O            T

API: the following record is the query input.
Record CC(C)C(=O)c1c(Nc2ccc(F)c(F)c2F)[nH]c2c(F)cc(F)cc2c1=O : is its MIC50 strictly below 7 µM?
T

----------
Assay: Cytotoxicity against African green monkey Vero cells
Type: toxicity, cell-based, Chlorocebus sabaeus
Give measured pIC50 for each item. Keep answers brief.
Give bare numbers, as −log10 of the molar value.

> print(dat)
                              sample.smiles  measured.result
1  CC(C)C(=O)c1c(Nc2ccc(F)cc2F)[nH]c2c(Cl)cc(Cl)c(Cl)c2c1=O             4.21

Attention now turns to another entry.
Specify reported pIC50 for the compound shown: CC(C)C(=O)c1c(Nc2ccc(F)c(F)c2F)[nH]c2c(F)cc(F)cc2c1=O
4.06

----------
Test: Metabolic stability in rat liver microsomes assessed as parent compound remaining measured after 30 mins
Format: ADME, Microsome
Conditions: read-out: Stability
readout-kind: remaining at 0.5 h (%)
One number for each entry, in %.

Specify reported remaining at 0.5 h for the molecule shown: CC(C)C(=O)c1c(Nc2ccc(F)cc2F)[nH]c2c(Cl)cc(Cl)c(Cl)c2c1=O
81.9

----------
Test: Cytotoxicity against CHO-K1 cells
Format: toxicity, cell-based, Cricetulus griseus
Settings: Chinese hamster
readout-kind: pIC50
Give bare numbers, as −log10 of the molar value.

Specify reported pIC50 for the compound shown: CC(C)C(=O)c1c(Nc2ccc(F)cc2F)[nH]c2c(Cl)cc(Cl)c(Cl)c2c1=O
5.31
